Data origin, for the record: patent US12054497B2

Assignment: determine reported TGI for the given molecules.
- System: subcutaneous xenograft tumor model of MIA PaCa-2
- protocol: In vivo pharmacodynamic experiment, tumor growth inhibition (Test Example 5)
- Parameters: species or system BALB/c nude mice
- experimental-parameters: 3 mg/kg, p.o., QD, day 14

// solved cases for TGI follow
molecule	TGI
C=CC(=O)N1CCN(c2nc(=O)n(-c3c(C)ccnc3C(C)C)c3nc(-c4c(O)cccc4F)c(F)cc23)[C@@H](C)C1 [AMG 510, reference compound]	109.1%
[2H]C([2H])([2H])N1C(=O)[C@H]2CN(C(=O)C=C)CCN2c2c1c(=O)n(-c1c(C)ccnc1C(C)C)c1nc(-c3c(O)cccc3F)c(Cl)cc21 (single isomer, unassigned) [Compound Z26-2]	143.8%
C=CC(=O)N1CCN2c3c(c(=O)n(-c4c(C(C)C)ncnc4C(C)C)c4nc(-c5c(O)cccc5F)c(Cl)cc34)N(C)C(=O)[C@H]2C1 [Compound Z48]	124.7%
C=CC(=O)N1C[C@@H]2C(=O)N(C)c3c(c4cc(Cl)c(-c5c(O)cccc5F)nc4n(-c4c(C)ccnc4C(C)C)c3=O)N2C[C@H]1C (single isomer, unassigned) [Compound Z27-2]	145.1%
C=CC(=O)N1CCN2c3c(c(=O)n(-c4c(C(C)C)ncnc4C(C)C)c4c(F)c(-c5c(O)cccc5F)c(Cl)cc34)NC(=O)[C@H]2C1 (single isomer, unassigned) [Compound Z37-1]	102.8%
C=CC(=O)N1CCN2c3c(c(=O)n(-c4c(C)ccnc4C(C)C)c4nc(-c5c(O)cccc5F)c(Cl)cc34)N(C)C(=O)[C@H]2C1 (single isomer, unassigned) [Compound Z25-2]	143.7%

As a next step, examine the molecule that follows.
Query block: For the record C=CC(=O)N1C[C@@H]2C(=O)N(C)c3c(c4cc(Cl)c(-c5c(O)cccc5F)nc4n(-c4c(C(C)C)ncnc4C(C)C)c3=O)N2C[C@H]1C [Compound Z23] , what value of TGI is listed for subcutaneous xenograft tumor model of MIA PaCa-2?
Result block: 143.5%
